# Target desc: Calmodulin-1 (Homo sapiens) (UniProt P0DP23)
# Test description: small molecules binding calmodulin-1 with EGTA – biochemical, small-molecule microarray, Cy5-labelled CALM1, profiling panel (AID 1111);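 also: labelled calmodulin applied in Tris saline Tween buffer holding calcium plus EGTA and DTT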
# Experimental context: Cy5-CALM1 binding fluorescence, higher = more signal
Below is a list of entries, each paired with its recorded composite z-score value.

Examples with their reported composite z-score follow.
• COC(=O)C(CC#Cc1ccc2c(c1)[C@]1(C(=O)N2)[C@H](C(=O)N2CCCCCCC2)[C@H]2C(=O)O[C@H](c3ccccc3)[C@H](c3ccccc3)N2[C@@H]1c1ccccc1OCCO)C(=O)OC = 3.11
• CC1CC/C=C\[C@H]2OC34C=CCN(c5ccc6ccccc6c5)C(=O)[C@H]3N(CCCCCO)C(=O)[C@@H]4C2C(=O)O1 (some centres undefined) = -0.827
• O=C1O[C@@H](c2ccccc2)[C@@H](c2ccccc2)N2[C@@H](c3ccc(O)cc3)[C@]3(C(=O)Nc4ccc(C#CCCO)cc43)[C@@H](C(=O)O)[C@H]12 = 2.19

Then there is this compound:
## Input Identify the measured composite z-score of CCCCC(=C=CC[C@H](O)c1ccccc1OCCO)C[C@H](O)c1cc(Cl)cc(Cl)c1O for Calmodulin-1 (Homo sapiens) (UniProt P0DP23).
## Output 0.684

----------
# Tested on: XIP peptide (Xip251-270) binding
# Test description: XIP fragment 251-270 binding compounds – biochemical, small-molecule microarray, fluorescence 635/667 nm, 0.1 µg/mL protein, primary screen (AID 1182)
# Experimental context: fluorescent protein binding, 635 nm, higher = more signal, called active from +8 up or from −8 down
The source made the active and inactive calls.
Measure: composite z-score

Examples with their reported composite z-score follow.
- COc1ccc(C#Cc2ccc3c(c2)[C@]2(C(=O)N3)[C@H](C(=O)N3CCc4cc(OC)c(OC)cc4C3)[C@H]3C(=O)O[C@H](c4ccccc4)[C@H](c4ccccc4)N3[C@@H]2c2ccc(OCCO)cc2)cc1: 0.53 (inactive)
- C=CCN1Cc2ccccc2C[C@]2(N=C(c3ccc(OCCCO)cc3)O[C@@H]2c2ccccc2)C1=O: 1.27 (inactive)
- COC(=O)c1nc2oc1CC[C@@H](CO)NC(=O)N(C)Cc1cn(nn1)C[C@H](Cc1ccccc1)NC2=O: 0.827 (inactive)
- Cc1ccc(S[C@]2(C(=O)NCc3ccccc3)CC(=O)N(Cc3cc(C(F)(F)F)cc(C(F)(F)F)c3)[C@@H]2c2ccc(CO)cc2)cc1: -0.384 (inactive)
- CC(C)[Si]1(C(C)C)O[C@@H](c2ccccc2)c2cc(-c3ccc(-c4ccc(Cl)c(Cl)c4)o3)nc(CCc3ccccc3)c21: -0.0577 (inactive)

Then there is this compound:
## Input Identify the measured composite z-score of O=C(NCCN1CCOCC1)[C@@H]1c2ccccc2C(=O)N(Cc2cc(F)cc(C(F)(F)F)c2)[C@H]1c1ccc(CO)cc1 for XIP peptide (Xip251-270) binding.
## Output 0.376 (inactive)

----------
# Test description: probe aEGFR binding to arrayed compounds – biochemical, biotinylated probe, 635/667 nm fluorescence, primary screen (AID 1097);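 also: probe is a biotinylated anti-EGFR antibody binding compounds printed on slides; score combines fluorescence near 667 nm and signal to noise of each spot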
# Experimental context: small-molecule microarray, higher = more signal
Below is a list of entries, each paired with its recorded composite z-score value.
Respond numerically, and do not add a unit to the figure.

Examples with their reported composite z-score follow.
* C=CCOC(=O)[C@@H]1[C@H]2C(=O)O[C@H](c3ccccc3)[C@H](c3ccccc3)N2[C@H](c2ccc(OCCOC(=O)[C@H]3C[C@H]4C(=O)N[C@@H](CCCC[N+](C)(C)C)C(=O)N4[C@H]3c3cccc(OCCO)c3)cc2)[C@@]12C(=O)Nc1ccc(I)cc12 | 0.0527
* C=C(/C(=C/C[C@@H](OC(=O)c1ccncc1)c1ccc(CO)o1)c1cc(C(=O)OC)ccc1OC)C(C)C | 0.0073
* C=CCNC(=O)[C@H]1[C@@H]2C(=O)O[C@@H](c3ccccc3)[C@@H](c3ccccc3)N2[C@@H](c2ccc(O)cc2)[C@]12C(=O)Nc1ccc(C#Cc3ccc(OC)cc3)cc12 | 0.469
* C=C(COC)C(=O)CC[C@H](OC(=O)c1cccnc1)c1ccccc1OCCO | -0.0406
* CN(C)CCCC[C@@H]1NC(=O)[C@@H]2C[C@H](C(=O)NCCCCCCN)[C@H](c3ccc(O)cc3)N2C1=O | 0.678

## Input For the molecule COc1cc(CO)cc(I)c1O[C@H]1C=C(C(=O)NCCO)C[C@@H](N(CCc2cccc(F)c2)C(=O)CCC2CCCC2)[C@@H]1O , what composite z-score is on record?
## Output -0.0302

## Input For the molecule C=CCOC(=O)[C@@H]1[C@H]2C(=O)O[C@H](c3ccccc3)[C@H](c3ccccc3)N2[C@H](c2ccc(OCCOC(=O)[C@H]3C[C@H]4C(=O)N[C@@H](Cc5ccccc5)C(=O)N4[C@H]3c3ccc(O)cc3)cc2)[C@@]12C(=O)Nc1ccc(I)cc12 , what composite z-score is on record?
## Output 0.128

## Input For the molecule O=C1O[C@@H](c2ccccc2)[C@@H](c2ccccc2)N2[C@@H](c3ccccc3OCCO)[C@]3(C(=O)Nc4ccc(C#CC5(O)CCCCCC5)cc43)[C@@H](C(=O)NC[C@H](O)c3ccccc3)[C@H]12 , what composite z-score is on record?
## Output 0.146

## Input For the molecule CN1C(=O)C2C=CC(C(O)C3=C[C@H]4C[C@@H](C3)C4(C)C)N(Nc3ccc([N+](=O)[O-])cc3[N+](=O)[O-])C2C1=O (stereo not given in full) , what composite z-score is on record?
## Output 0.213

## Input For the molecule COc1ccc([Si](C)(C)[C@@H]2[C@@H](CCO)O[C@]3(C(=O)N(Cc4cccc(N5CCCCC5=O)c4)c4ccccc43)[C@H]2C)cc1 , what composite z-score is on record?
## Output -0.0442

## Input For the molecule O=C(CS)NCCCCCNC(=O)[C@H]1C[C@H]2C(=O)N[C@@H](Cc3ccccc3)C(=O)N2[C@H]1c1cccc(OCCO)c1 , what composite z-score is on record?
## Output 0.12

----------
Below is a list of entries, each paired with its recorded z-score value.
# Test description: blockers of DNA damage checkpoint Chk1 activation – imaging, HeLa, hydroxyurea, phospho-Chk1 antibody, percent positive cells, primary screen (AID 1186)
# Experimental context: hydroxyurea-induced phospho-Chk1 immunofluorescence imaging, higher = more signal
Respond numerically, and do not add a unit to the figure.

* CN1C(=O)C2C=CC(C(O)C(C)(C)C)N(Nc3ccccc3)C2C1=O (stereo unspecified) | -0.415

## Input For the compound CCN(CC)c1ccc(N2CC=CC34O[C@@H]5/C=C\CCC(C)OC(=O)C5[C@H]3C(=O)N(CCCCCCO)[C@@H]4C2=O)cc1 (stereo partly specified) , what z-score is on record?
## Output -0.632

## Input For the compound CCCCC(=C=CC[C@H](O)c1ccccc1OCCO)C[C@H](O)c1cc(Cl)cc(Cl)c1O , what z-score is on record?
## Output 0.0899

## Input For the compound CN(C)CCCC[C@@H]1NC(=O)[C@@H]2C[C@H](C(=O)NCc3ccc(F)cc3)[C@H](c3cccc(OCCO)c3)N2C1=O , what z-score is on record?
## Output 0.445

## Input For the compound NC(=O)NCC#Cc1ccc2c(c1)[C@]1(C(=O)N2)[C@H](c2ccccc2OCCO)N2[C@H](c3ccccc3)[C@H](c3ccccc3)OC(=O)[C@H]2[C@@H]1C(=O)N1CCCCCCC1 , what z-score is on record?
## Output 0.264

## Input For the compound COCCOC(=O)N1C(=O)[C@@]2(c3cc(C#CC4=CCCCC4)ccc31)[C@H](c1ccc(OCCO)cc1)N1[C@H](c3ccccc3)[C@H](c3ccccc3)OC(=O)[C@H]1[C@@H]2C(=O)Nc1nc2ccccc2s1 , what z-score is on record?
## Output -0.446

## Input For the compound O=C(CS)NCCCCCNC(=O)[C@H]1C[C@H]2C(=O)N[C@@H](Cc3ccccc3)C(=O)N2[C@H]1c1cccc(OCCO)c1 , what z-score is on record?
## Output 0.0034

## Input For the compound CC(C)(C)OC(=O)CC[C@@]1(C(N)=O)N=C(c2ccc(OCCCO)cc2)O[C@@H]1c1ccccc1N=[N+]=[N-] , what z-score is on record?
## Output -0.244

## Input For the compound COc1ccc([Si](C)(C)[C@H]2[C@H](CCO)O[C@@]3(C(=O)N(Cc4cccc(N5C(=O)c6cccc7cccc5c67)c4)c4ccccc43)[C@@H]2C)cc1 , what z-score is on record?
## Output -0.283

## Input For the compound C=CC[C@@]1(C(=O)NCCN2CCOCC2)N=C(c2ccc(OCCCO)cc2)O[C@@H]1c1ccccc1CN=[N+]=[N-] , what z-score is on record?
## Output -0.336

## Input For the compound [N-]=[N+]=NCc1ccccc1C[C@]1(C(=O)NCCN2CCOCC2)N=C(c2ccc(OCCCO)cc2)O[C@H]1c1ccccc1CN=[N+]=[N-] , what z-score is on record?
## Output -0.26
